system: nutsedge, yellow (yellow nutsedge, Cyperus esculentus); test: Test C greenhouse herbicide test, pre- and postemergence; assay type: in vivo; details: Preemergence, 62 g ai/ha; scale 0 to 100, 0 is no effect, 100 is complete control
Each entry below carries its recorded Plant response rating, Nutsedge, Yellow.
property-name: Plant response rating, Nutsedge, Yellow

{"compound-structure-string": "Cc1cc(C)c2sc(C)c(-c3c(OC(=O)OCCCl)c(C)nn(C)c3=O)c2c1", "property-name": "Plant response rating, Nutsedge, Yellow", "numeric-result": 85}
{"compound-structure-string": "CC(=O)Oc1c(C)nn(C)c(=O)c1-c1ccc(F)c2ccccc12", "property-name": "Plant response rating, Nutsedge, Yellow", "numeric-result": 45}
{"compound-structure-string": "Cc1cc(C)c2sc(C)c(-c3c(OC(=O)OC(C)C)c(C)nn(C)c3=O)c2c1", "property-name": "Plant response rating, Nutsedge, Yellow", "numeric-result": 20}
{"compound-structure-string": "CCOC(=O)Oc1c(C)nn(C)c(=O)c1-c1c(CC)ccc2ccccc12", "property-name": "Plant response rating, Nutsedge, Yellow", "numeric-result": 20}
{"compound-structure-string": "CCC(=O)Oc1c(Cl)nn(C)c(=O)c1-c1c(C)sc2ccc(Cl)cc12", "property-name": "Plant response rating, Nutsedge, Yellow", "numeric-result": 20}
{"compound-structure-string": "CCCC(=O)Oc1c(C)nn(C)c(=O)c1-c1c(C)sc2c(C)cc(C)cc12", "property-name": "Plant response rating, Nutsedge, Yellow", "numeric-result": 70}
{"compound-structure-string": "COC(=O)Oc1c(Br)nn(C)c(=O)c1-c1c(C)ccc2ccccc12", "property-name": "Plant response rating, Nutsedge, Yellow", "numeric-result": 85}
{"compound-structure-string": "CCC(=O)Oc1c(C)nn(C)c(=O)c1-c1c(C)sc2ccc(Cl)cc12", "property-name": "Plant response rating, Nutsedge, Yellow", "numeric-result": 70}
{"compound-structure-string": "Cc1nn(C)c(=O)c(-c2c(C)sc3ccc(Cl)cc23)c1O", "property-name": "Plant response rating, Nutsedge, Yellow", "numeric-result": 45}
{"compound-structure-string": "COc1nn(C)c(=O)c(-c2c(C)ccc3ccccc23)c1OC(=O)OC(C)C", "property-name": "Plant response rating, Nutsedge, Yellow", "numeric-result": 20}
